For each record, write down the corresponding pKd.
assayedTarget: T1, MET928 (cMET protein derived from construct 25-928) (human, UniProt P08581 25-928)
T1 construct: MET ectodomain, residues 1-24 are the leader; produced in Lec 8 cells; background text says the ectodomain is furin-cleaved into alpha (25-307) and beta chains; biotinylated form used in selections; also called MET928 extracellular domain; Met extracellular domain
T1 sequence (P08581 25-928): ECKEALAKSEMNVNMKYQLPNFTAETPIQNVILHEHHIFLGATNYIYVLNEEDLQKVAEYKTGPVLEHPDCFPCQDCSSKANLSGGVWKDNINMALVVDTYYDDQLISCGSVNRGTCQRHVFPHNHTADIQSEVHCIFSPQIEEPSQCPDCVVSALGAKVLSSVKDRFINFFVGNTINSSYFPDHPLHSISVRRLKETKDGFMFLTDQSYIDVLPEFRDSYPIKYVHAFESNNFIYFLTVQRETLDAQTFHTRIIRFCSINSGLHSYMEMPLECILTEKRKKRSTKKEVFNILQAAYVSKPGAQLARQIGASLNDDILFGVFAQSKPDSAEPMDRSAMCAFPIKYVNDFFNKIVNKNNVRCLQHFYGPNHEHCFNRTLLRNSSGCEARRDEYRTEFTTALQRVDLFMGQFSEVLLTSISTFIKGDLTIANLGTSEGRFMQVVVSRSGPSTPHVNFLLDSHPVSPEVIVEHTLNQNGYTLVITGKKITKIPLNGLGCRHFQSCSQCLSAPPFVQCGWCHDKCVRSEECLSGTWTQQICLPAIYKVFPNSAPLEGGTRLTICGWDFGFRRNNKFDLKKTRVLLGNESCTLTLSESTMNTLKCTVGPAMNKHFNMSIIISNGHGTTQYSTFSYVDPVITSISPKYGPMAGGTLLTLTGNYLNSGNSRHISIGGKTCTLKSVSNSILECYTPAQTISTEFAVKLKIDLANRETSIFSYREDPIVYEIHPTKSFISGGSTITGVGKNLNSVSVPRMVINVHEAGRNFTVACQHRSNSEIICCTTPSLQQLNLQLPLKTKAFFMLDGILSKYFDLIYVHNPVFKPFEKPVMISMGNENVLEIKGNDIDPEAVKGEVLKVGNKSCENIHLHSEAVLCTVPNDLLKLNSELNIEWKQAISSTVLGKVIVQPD
methodDescription: Biacore SPR, MET-928 on chip, Fab format
Answers are plain numbers, as −log10 of the molar value.

Some entries whose results are on file:
binder	pKd
110_A01 Fab (His/tri-FLAG tagged, hinged) (Fab, V domains shown, Fab from pBIOCAM7-3F, hinged, hexahistidine and tri-FLAG tags on the heavy chain) VH: QMQLVQSGAEVKKPGAPVKVSCKVSGYTFTDYYMHWVQQAPGKGLEWMGLVDPEDGETIYAEKFQGRVTITADTSTDTAYMELSSLRSEDTAVYYCATDATTPYWFPYLWGQGTLVTVSS VL: DIQMTQSPSSLSASVGDRVTITCQASQDISNYLNWYQQKPGRAPKVLIYDASNLETGVPSRFSGSGSGTEFTLTISNLRPDDFATYYCQQGDSFPLTFGGGTKVEIK	8.91
107_A07 Fab (His/tri-FLAG tagged, hinged) (Fab, V domains shown, Fab from pBIOCAM7-3F in HEK293 cells, hinged format (Leu-Glu after VH), hexahistidine and tri-FLAG tags on the heavy chain) VH: QMQLVQSGAEVKKPGAPVKVSCKVSGYTFTDYYMHWVQQAPGKGLEWMGLVDPEDGETIYAEKFQGRVTITADTSTDTAYMELSSLRSEDTAVYYCATDATTPYWGMMWWGQGTLVTVSS VL: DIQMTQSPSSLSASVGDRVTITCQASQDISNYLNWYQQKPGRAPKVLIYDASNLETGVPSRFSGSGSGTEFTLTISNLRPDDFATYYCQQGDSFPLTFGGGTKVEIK	8.91

# ---- query binder ----
Quick one: give measured pKd for 110_A12 Fab (His/tri-FLAG tagged, hinged) (Fab, V domains shown, Fab from pBIOCAM7-3F, hinged, hexahistidine and tri-FLAG tags on the heavy chain) VH: QMQLVQSGAEVKKPGAPVKVSCKVSGYTFTDYYMHWVQQAPGKGLEWMGLVDPEDGETIYAEKFQGRVTITADTSTDTAYMELSSLRSEDTAVYYCATDATTPYWFPREWGQGTLVTVSS VL: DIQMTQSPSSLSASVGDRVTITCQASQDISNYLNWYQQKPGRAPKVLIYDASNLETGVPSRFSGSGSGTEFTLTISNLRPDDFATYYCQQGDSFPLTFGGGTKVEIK
8.55
